method description: Oral bioavailability in Sprague-Dawley rat after 30 mins
Assay type: ADME, organism-based
condition set: in vivo
bioavailability of 50% or higher: T. Under 50%: F.

For orientation, consider the following solved cases.
[[record]]
sample_smiles = "NS(=O)(=O)c1ccc(CNc2nc(NCC(F)(F)F)c3nc(-c4ccc(-n5cncn5)cc4)ccc3n2)cc1"
class = "F"

[[record]]
sample_smiles = "NS(=O)(=O)c1ccc(CNc2nc(NCC(F)(F)F)c3nc(-c4ccc(NC(=O)C5CC5)cc4)ccc3n2)cc1"
class = "F"

[[record]]
sample_smiles = "COc1ccc(-c2ccc3nc(NCc4ccc(S(N)(=O)=O)cc4)nc(NCC(F)(F)F)c3n2)cc1S(C)(=O)=O"
class = "F"


Check the entry "FC(F)(F)CNc1nc(NCc2ccc(-n3cncn3)cc2)nc2ccc(-c3ccc(OC4CC4)nc3)nc12" : does bioavailability equal or exceed 50%?
T

Check the entry "CC1(Oc2nc(NCc3ccc(-n4cncn4)cc3)nc3ccc(-c4ccc(OC5CC5)nc4)nc23)CC1" : does bioavailability equal or exceed 50%?
T

Check the entry "COc1ccc(-c2ccc3nc(NCc4ccc(S(N)(=O)=O)cc4)nc(NC4(C#N)CC4)c3n2)cn1" : does bioavailability equal or exceed 50%?
F

Check the entry "COc1ccc(-c2ccc3nc(N[C@H](C)c4ccc(-n5cncn5)cc4)nc(NCC(F)(F)F)c3n2)cc1S(C)(=O)=O" : does bioavailability equal or exceed 50%?
F

Check the entry "C[C@@H](Nc1nc(NC2(C(F)(F)F)CC2)c2nc(-c3cccc(S(C)(=O)=O)c3)ccc2n1)c1ccc(-n2cncn2)cc1" : does bioavailability equal or exceed 50%?
T

Check the entry "NS(=O)(=O)c1cc(CNc2nc(NCC(F)(F)F)c3nc(-c4ccc(NC(=O)C5(C(F)(F)F)CC5)cc4)ccc3n2)cc(C(F)(F)F)c1" : does bioavailability equal or exceed 50%?
F

Check the entry "NS(=O)(=O)c1ccc(CNc2nc(NCC(F)(F)F)c3nc(-c4ccc(F)cc4)ccc3n2)cc1" : does bioavailability equal or exceed 50%?
T

Ref: ChEMBL document CHEMBL2016562
